Field: Fub. Provide a value for each of the compounds that follow.
Experiment: IVIVE: steady-state concentration (Css), generic HTTK model
Design: species or system human
Conditions: fub=fup/(B:P); Fub set to 1 if needed
Method: IVIVE was performed as previously described to calculate human steady-state concentrations (Css). Briefly, experimental plasma protein binding data presented elsewhere were transformed to fraction unbound in blood using blood-to-plasma partitioning values. Experimental Clint values generated here are used in conjunction with relevant liver scalars to scale up to estimate whole liver clearance. […]

Let me know recorded Fub for O=S(=O)(O)C(F)(F)C(F)(F)C(F)(F)C(F)(F)C(F)(F)C(F)(F)C(F)(F)C(F)(F)F [Perfluorooctane sulfonate (PFOS)] , thanks. 0.008909

Let me know recorded Fub for O=C(O)C(F)(F)C(F)(F)C(F)(F)C(F)(F)C(F)(F)C(F)(F)F [Perfluoroheptanoic acid (PFHpA)] , thanks. 0.0007273

Let me know recorded Fub for CNS(=O)(=O)C(F)(F)C(F)(F)C(F)(F)C(F)(F)C(F)(F)C(F)(F)C(F)(F)C(F)(F)F , thanks. 0.02127

Let me know recorded Fub for O=S(=O)(O)CCC(F)(F)C(F)(F)C(F)(F)C(F)(F)F , thanks. 0.009091

Let me know recorded Fub for O=C(O)C(F)(F)C(F)(F)C(F)F [4H-perfluorobutanoic acid (4H-PFBA)] , thanks. 0.3116

Let me know recorded Fub for O=C(O)CCC(F)(F)C(F)(F)C(F)(F)F , thanks. 0.09418

Let me know recorded Fub for O=S(=O)([O-])C(F)(F)C(F)(F)C(F)(F)C(F)(F)C(F)(F)C(F)(F)C(F)(F)C(F)(F)F.[K+] , thanks. 0.007273

Let me know recorded Fub for NS(=O)(=O)C(F)(F)C(F)(F)C(F)(F)C(F)(F)C(F)(F)C(F)(F)F [Perfluorohexanesulfonamide (PFHxSA)] , thanks. 0.0007273

Let me know recorded Fub for O=C(O)C(F)(F)C(F)(F)C(F)(F)C(F)(F)C(F)(F)C(F)(F)C(F)(F)C(F)(F)C(F)(F)C(F)(F)C(F)(F)C(F)(F)C(F)(F)F [Perfluorotetradecanoic acid (PFTeA)] , thanks. 0.04927

Let me know recorded Fub for O=C(O)C(F)(F)C(F)(F)C(F)(F)C(F)(F)F [Perfluoropentanoic acid (PFPeA)] , thanks. 0.08

Let me know recorded Fub for O=S(=O)([O-])C(F)(F)C(F)(F)C(F)(F)C(F)(F)F.[K+] , thanks. 0.008364

Let me know recorded Fub for O=C([O-])C(F)(F)C(F)(F)C(F)(F)C(F)(F)C(F)(F)C(F)(F)C(F)(F)F.[Na+] [Sodium perfluorooctanoate (NaPFOA)] , thanks. 0.001091

Let me know recorded Fub for O=C(O)C(F)(F)C(F)(F)C(F)(F)OC(F)(F)F , thanks. 0.02127

Let me know recorded Fub for O=C(O)C(F)(F)C(F)(F)C(F)(F)C(F)(F)C(F)(F)C(F)(F)C(F)(F)C(F)(F)C(F)(F)F [Perfluorodecanoic acid (PFDA)] , thanks. 0.004909

Let me know recorded Fub for O=C(O)C(F)(F)OC(F)(F)C(F)(F)OC(F)(F)C(F)(F)OC(F)(F)F [Perfluoro-3,6,9-trioxadecanoic acid] , thanks. 0.0005455
